Procedure details: Cytotoxicity against human HUVEC
Type: cell-based
Measurement setup: HUVEC cells, read-out: ED50 (the source's name)
Each entry below carries its recorded CC50.

{"Molecule": "CO[C@@H]1C[C@H]2C(C)(C)[C@@H](O[C@@H]3O[C@H](CO)[C@@H](O)[C@H](O[C@@H]4OC[C@H](O)[C@H](O)[C@H]4O)[C@H]3O[C@@H]3O[C@H](CO)[C@@H](O)[C@H](O)[C@H]3O)CC[C@]2(C)[C@H]2CC=C3[C@@H]4CC(C)(C)CC[C@]4(CO)CC[C@@]3(C)[C@@]21C [NEPHELIOSIDE IV]", "CC50": "> 20 µg/mL"}
{"Molecule": "CC1(C)CC[C@]2(CO)CC[C@]3(C)C(=CC[C@@H]4[C@@]5(C)CC[C@H](O[C@@H]6O[C@H](CO)[C@@H](O)[C@H](O[C@@H]7OC[C@H](O)[C@H](O)[C@H]7O)[C@H]6O[C@@H]6O[C@H](CO)[C@@H](O)[C@H](O)[C@H]6O)C(C)(C)[C@@H]5CC[C@]43C)[C@@H]2C1 [NEPHELIOSIDE II]", "CC50": "> 20 µg/mL"}

###

Procedure details: Cytotoxicity against human HUVEC
Type: cell-based
Measurement setup: HUVEC cells, read-out: ED50 (the source's name)

{"Compound": "CC1(C)CC[C@]2(CO)CC[C@]3(C)C(=CC[C@@H]4[C@@]5(C)CC[C@H](O[C@@H]6OC[C@@H](O)[C@H](O[C@@H]7OC[C@H](O)[C@H](O)[C@H]7O)[C@H]6O[C@@H]6O[C@H](CO)[C@@H](O)[C@H](O)[C@H]6O)C(C)(C)[C@@H]5CC[C@]43C)[C@@H]2C1 [NEPHELIOSIDE I]", "CC50": "> 20 µg/mL"}
{"Compound": "CC1(C)CC[C@]2(C)[C@@H](O)C[C@]3(C)C(=CC[C@@H]4[C@@]5(C)CC[C@H](O[C@@H]6OC[C@@H](O)[C@H](O[C@@H]7OC[C@H](O)[C@H](O)[C@H]7O)[C@H]6O[C@@H]6O[C@H](CO)[C@@H](O)[C@H](O)[C@H]6O)C(C)(C)[C@@H]5CC[C@]43C)[C@@H]2C1 [NEPHELIOSIDE V]", "CC50": "17.7 µg/mL"}
{"Compound": "CC1(C)CC[C@]2(C)[C@@H](O)C[C@]3(C)C(=CC[C@@H]4[C@@]5(C)CC[C@H](O[C@@H]6O[C@H](CO)[C@@H](O)[C@H](O[C@@H]7OC[C@H](O)[C@H](O)[C@H]7O)[C@H]6O[C@@H]6O[C@H](CO)[C@@H](O)[C@H](O)[C@H]6O)C(C)(C)[C@@H]5CC[C@]43C)[C@@H]2C1 [NEPHELIOSIDE VI]", "CC50": "> 20 µg/mL"}
{"Compound": "CC(=O)OC[C@H]1O[C@@H](O[C@@H]2[C@@H](O)[C@H](O[C@H]3CC[C@]4(C)[C@H]5CC=C6[C@@H]7CC(C)(C)CC[C@]7(CO)CC[C@@]6(C)[C@]5(C)CC[C@H]4C3(C)C)OC[C@H]2O)[C@H](O)[C@@H](O)[C@@H]1O", "CC50": "> 20 µg/mL"}
